method notes: Assay for plasma protein binding rate (equilibrium dialysis), rat plasma
Type: in vitro ADME
condition notes: dialysis 6 h at 37 °C, read-out: Rat (Fu%)
Threshold 0.03: fraction unbound at 6 h, 1 µM strictly smaller gives satisfied, otherwise not satisfied.

As a guide, the following entries are already answered.
* COc1ccc2ccoc2c1S(=O)(=O)Nc1noc2cc(Cn3cccn3)nc(OC)c12 | satisfied
* COc1cc2c(cc1S(=O)(=O)Nc1noc3cc(Cn4cccn4)nc(OC)c13)OCC2 | not satisfied
* COc1ccc2c(c1S(=O)(=O)Nc1noc3cc(Cn4cccn4)nc(OC)c13)OCC2 | satisfied
* COc1cc2ccoc2cc1S(=O)(=O)Nc1noc2cc(Cn3cccn3)nc(OC)c12 | satisfied
* COc1cc2c(cc1S(=O)(=O)Nc1noc3cc(Cn4cccn4)nc(OC)c13)CCCO2 | satisfied

Record COc1cc2c(cc1S(=O)(=O)Nc1noc3cc(Cn4cccn4)nc(OC)c13)CCO2 : is its fraction unbound at 6 h, 1 µM strictly below 0.03?
not satisfied

Check if fraction unbound at 6 h, 1 µM falls below 0.03 for COc1cc2c(cc1S(=O)(=O)Nc1noc3cc(Cn4cccn4)nc(OC)c13)CCCC2 .
satisfied

###

Tested on: human breast cancer cell line ZR-75-1
method notes: Assay for cell growth inhibitory activity (3D hydrogel culture, CCK-8)
Type: cell-based
condition notes: ZR-75-1, 1000 nM, 96 h, read-out: Cell survival rate at example drug concentration 1000 nM
measurement type: viability at 1 µM (%)
Form entry: value (%) — number only.

• COc1nc(Cn2cccn2)cc2onc(NS(=O)(=O)c3cccc4ccoc34)c12 = 35

Hello, I am looking for reported viability at 1 µM with human breast cancer cell line ZR-75-1 for COc1nc(Cn2cccn2)cc2onc(NS(=O)(=O)c3cccc4c3OCCO4)c12 . Could you help?
29

Return viability at 1 µM measured with human breast cancer cell line ZR-75-1 given this compound: COc1ccc2c(c1S(=O)(=O)Nc1noc3cc(Cn4cccn4)nc(OC)c13)CCCC2
29

Form field: viability at 1 µM recorded for COc1ccc2c(c1S(=O)(=O)Nc1noc3cc(Cn4cccn4)nc(OC)c13)OCC2 with human breast cancer cell line ZR-75-1 (enter value)
32

###

method notes: In-vivo pharmacokinetic study in beagle dogs
Set-up: species or system male beagle dogs
condition notes: dog, plasma, po, intragastric administration, 1 mg/kg
Method: 1.1 Instrument: high-performance liquid chromatograph: SHIMADZU LC-30AD; mass spectrum: AB SCIEX mass spectrometer Triple Quad 5500; all measured data were calculated and processed using Microsoft Excel, and relevant pharmacokinetic parameters were calculated using WinNonlin software. […] All measured data were collected and processed by the relevant software, and pharmacokinetic parameters were calculated using Winnonlin software. […]
measurement type: Cmax
Just so you know, I need the unit written after the number.

Quick one: Cmax for COc1cc2c(cc1S(=O)(=O)Nc1noc3cc(Cn4cccn4)nc(OC)c13)CCCO2 ?
14000 ng/mL

###

method notes: In-vivo pharmacokinetic study in rats
Parameters: species or system SD female rats
condition notes: female, SD, rat, plasma, po, intragastric administration, 5 mg/kg
Rule: TRUE for Cmax not less than 6000 ng/mL, FALSE for anything less.

- COc1ccc2c(c1S(=O)(=O)Nc1noc3cc(Cn4cccn4)nc(OC)c13)OCC2: TRUE
- COc1cc2c(c(OC)c1S(=O)(=O)Nc1noc3cc(Cn4cccn4)nc(OC)c13)CCC2: TRUE
- COc1ccc2ccoc2c1S(=O)(=O)Nc1noc2cc(Cn3cccn3)nc(OC)c12: TRUE

Quick check, Cmax >= 6000 ng/mL? COc1cc2c(cc1S(=O)(=O)Nc1noc3cc(Cn4cccn4)nc(OC)c13)CCCC2
FALSE

For this compound, is measured Cmax 6000 ng/mL or higher? COc1cc2c(cc1S(=O)(=O)Nc1noc3cc(Cn4cccn4)nc(OC)c13)CCO2
FALSE

Is reported Cmax greater than or equal to 6000 ng/mL here: COc1ccc2cccnc2c1S(=O)(=O)Nc1noc2cc(Cn3cccn3)nc(OC)c12
FALSE

###

method notes: In-vivo pharmacokinetic study in beagle dogs
Parameters: species or system male beagle dogs
condition notes: dog, plasma, po, intragastric administration, 1 mg/kg
measurement type: AUC(0-inf) (µg·h/mL)
A number alone suffices; assume µg·h/mL.

For COc1cc2c(cc1S(=O)(=O)Nc1noc3cc(Cn4cccn4)nc(OC)c13)CCCO2 [Example 76] , what is its reported AUC(0-inf)?
749

###

The entries below come with measured Tmax values attached.
method notes: In-vivo pharmacokinetic study in beagle dogs
Design: species or system male beagle dogs
condition notes: male, dog, plasma, po, intragastric administration, 1 mg/kg
Answer with a number only, understood to be in min.

The following molecules have reported results that may help.
• COc1cc2c(cc1S(=O)(=O)Nc1noc3cc(Cn4cccn4)nc(OC)c13)OCC2 = 40.2
• COc1ccc2c(c1S(=O)(=O)Nc1noc3cc(Cn4cccn4)nc(OC)c13)OCC2 = 79.8

Attention now turns to another entry.
Any idea what its Tmax is? The molecule is COc1ccc2ccoc2c1S(=O)(=O)Nc1noc2cc(Cn3cccn3)nc(OC)c12
49.8

###

method notes: In-vivo pharmacokinetic study in beagle dogs
Design: species or system male beagle dogs
condition notes: male, dog, plasma, po, intragastric administration, 0.6 mg/kg
Procedure: 1.1 Instrument: high-performance liquid chromatograph: SHIMADZU LC-30AD; mass spectrum: AB SCIEX mass spectrometer Triple Quad 5500; all measured data were calculated and processed using Microsoft Excel, and relevant pharmacokinetic parameters were calculated using WinNonlin software. […] All measured data were collected and processed by the relevant software, and pharmacokinetic parameters were calculated using Winnonlin software. […]
measurement type: Tmax (h)
Reply numerically in h, unit not repeated.

Tmax for COc1cc2c(cc1S(=O)(=O)Nc1noc3cc(Cn4cccn4)nc(OC)c13)CCCC2 ?
4

###

Reported values: IC50 for KAT6A (Homo sapiens), one per item.
Hi, when you answer, please include the unit after the number. Thanks!

- COc1nc(Cn2nccn2)cc2onc(NS(=O)(=O)c3cccc4c3OCCO4)c12: 1.57 nM
- COc1cc2c(cc1S(=O)(=O)Nc1noc3cc(Cn4cccn4)nc(OC)c13)CCCC2: 0.72 nM
- COc1cc2c(cc1S(=O)(=O)Nc1noc3cc(Cn4cccn4)nc(OC)c13)CCC2: 0.85 nM
- COc1cc2c(cc1S(=O)(=O)Nc1noc3cc(Cn4cccn4)nc(OC)c13)OCO2: 0.95 nM
- COc1ccc2ccoc2c1S(=O)(=O)Nc1noc2cc(Cn3cccn3)nc(OC)c12: 0.38 nM

Form entry - test system: KAT6A (Homo sapiens); read-out: IC50; compound: COc1ccc2ccoc2c1S(=O)(=O)Nc1noc2cc(Cn3cc(F)cn3)nc(OC)c12
Sequence (Q92794 whole entry): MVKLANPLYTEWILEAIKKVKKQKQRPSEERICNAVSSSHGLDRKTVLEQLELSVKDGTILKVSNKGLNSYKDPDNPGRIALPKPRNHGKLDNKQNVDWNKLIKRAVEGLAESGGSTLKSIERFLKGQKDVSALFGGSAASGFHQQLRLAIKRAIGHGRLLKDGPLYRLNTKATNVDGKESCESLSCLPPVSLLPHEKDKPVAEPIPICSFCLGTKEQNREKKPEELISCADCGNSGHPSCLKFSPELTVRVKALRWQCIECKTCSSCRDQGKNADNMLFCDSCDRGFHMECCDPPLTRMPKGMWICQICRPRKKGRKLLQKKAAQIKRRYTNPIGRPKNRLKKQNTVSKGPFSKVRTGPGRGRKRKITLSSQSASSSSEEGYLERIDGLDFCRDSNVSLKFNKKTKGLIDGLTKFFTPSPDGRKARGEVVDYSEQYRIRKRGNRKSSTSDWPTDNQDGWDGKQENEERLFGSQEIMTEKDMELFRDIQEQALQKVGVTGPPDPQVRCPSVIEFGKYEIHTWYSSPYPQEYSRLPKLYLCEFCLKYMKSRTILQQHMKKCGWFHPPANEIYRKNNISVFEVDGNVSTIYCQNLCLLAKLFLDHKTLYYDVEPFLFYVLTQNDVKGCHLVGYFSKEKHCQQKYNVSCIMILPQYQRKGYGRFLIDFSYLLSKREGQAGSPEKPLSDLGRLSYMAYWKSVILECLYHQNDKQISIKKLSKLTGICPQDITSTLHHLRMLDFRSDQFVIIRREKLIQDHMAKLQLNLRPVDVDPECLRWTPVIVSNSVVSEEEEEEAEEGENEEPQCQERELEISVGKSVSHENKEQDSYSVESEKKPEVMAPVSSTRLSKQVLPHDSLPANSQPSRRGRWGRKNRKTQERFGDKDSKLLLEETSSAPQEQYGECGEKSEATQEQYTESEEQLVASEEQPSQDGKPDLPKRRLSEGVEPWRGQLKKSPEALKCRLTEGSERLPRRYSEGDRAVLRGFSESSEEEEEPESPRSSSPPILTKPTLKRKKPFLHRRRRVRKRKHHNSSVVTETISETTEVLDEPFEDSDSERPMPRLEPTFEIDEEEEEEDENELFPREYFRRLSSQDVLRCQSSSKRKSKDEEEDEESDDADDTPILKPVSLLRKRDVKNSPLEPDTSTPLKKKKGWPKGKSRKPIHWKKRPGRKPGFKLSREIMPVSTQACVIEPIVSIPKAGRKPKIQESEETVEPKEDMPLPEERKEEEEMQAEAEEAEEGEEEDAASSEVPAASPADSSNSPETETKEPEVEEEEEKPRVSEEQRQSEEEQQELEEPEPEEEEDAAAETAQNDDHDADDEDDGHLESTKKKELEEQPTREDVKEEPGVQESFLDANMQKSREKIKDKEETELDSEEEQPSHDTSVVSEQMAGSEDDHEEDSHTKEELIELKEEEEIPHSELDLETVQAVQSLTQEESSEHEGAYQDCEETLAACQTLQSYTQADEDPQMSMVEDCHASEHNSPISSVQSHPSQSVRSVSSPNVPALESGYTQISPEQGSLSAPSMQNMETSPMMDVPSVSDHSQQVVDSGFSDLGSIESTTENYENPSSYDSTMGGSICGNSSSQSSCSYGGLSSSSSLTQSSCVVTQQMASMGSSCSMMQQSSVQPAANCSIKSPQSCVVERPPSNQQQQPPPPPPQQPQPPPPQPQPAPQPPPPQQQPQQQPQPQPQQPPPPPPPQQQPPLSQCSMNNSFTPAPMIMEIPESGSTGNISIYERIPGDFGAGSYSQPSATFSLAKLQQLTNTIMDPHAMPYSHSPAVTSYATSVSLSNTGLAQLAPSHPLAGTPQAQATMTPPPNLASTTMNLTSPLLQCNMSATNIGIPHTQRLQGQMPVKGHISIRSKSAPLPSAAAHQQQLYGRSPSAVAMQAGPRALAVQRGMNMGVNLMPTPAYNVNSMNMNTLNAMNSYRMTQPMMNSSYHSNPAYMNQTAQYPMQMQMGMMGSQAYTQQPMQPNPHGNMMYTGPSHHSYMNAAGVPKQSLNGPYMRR
2.41 nM

###

method notes: In-vivo pharmacokinetic study in rats
Set-up: species or system SD female rats
condition notes: female, SD, rat, plasma, po, intragastric administration, 5 mg/kg
Protocol: 1.1 Instrument: high-performance liquid chromatograph: SHIMADZU LC-30AD; mass spectrum: AB SCIEX mass spectrometer Triple Quad 5500; all measured data were calculated and processed using Microsoft Excel, and relevant pharmacokinetic parameters were calculated using WinNonlin software. The main obtained kinetic parameters are Tmax, T1/2, Cmax, AUC0-24 h, and AUCinf. […] Sample injection amount: 1 µL. 1.2 Animals: three SD female rats were used. The body weight range was 180-300 g. […]
measurement type: Tmax (min)
Write it as a number; the unit min goes unstated.

Past entries and their recorded results:
- COc1ccc2cccnc2c1S(=O)(=O)Nc1noc2cc(Cn3cccn3)nc(OC)c12 [Example 11]: 49.8
- COc1ccc2ccoc2c1S(=O)(=O)Nc1noc2cc(Cn3cccn3)nc(OC)c12 [Example 10]: 30
- COc1ccc2c(c1S(=O)(=O)Nc1noc3cc(Cn4cccn4)nc(OC)c13)OCC2 [Example 9]: 110
- COc1cc2c(c(OC)c1S(=O)(=O)Nc1noc3cc(Cn4cccn4)nc(OC)c13)CCC2 [Example 62]: 70.2
- COc1nc(Cn2cccn2)cc2onc(NS(=O)(=O)c3cccc4ccoc34)c12 [Example 5]: 15
- COc1cc2c(cc1S(=O)(=O)Nc1noc3cc(Cn4cccn4)nc(OC)c13)CCO2 [Example 60]: 160
- COc1nc(Cn2cccn2)cc2onc(NS(=O)(=O)c3cccc4c3OCCO4)c12 [Example 4]: 15
- COc1nc(Cn2cccn2)cc2onc(NS(=O)(=O)c3cccc4c3ccn4C)c12 [Example 6]: 19.8

Name the reported Tmax value associated with the compound COc1cc2c(cc1S(=O)(=O)Nc1noc3cc(Cn4cccn4)nc(OC)c13)OCC2 [Example 59]
70.2

Query: Tmax; subject: COc1cc2cccnc2cc1S(=O)(=O)Nc1noc2cc(Cn3cccn3)nc(OC)c12 [Example 75]
15

Data request, read-out Tmax, for COc1cc2c(cc1S(=O)(=O)Nc1noc3cc(Cn4cccn4)nc(OC)c13)CCCC2 [Example 2]
360
